B1: Protein S100-G, residues 1 to 79; numbered along this chain, P02633 (parent)
chain: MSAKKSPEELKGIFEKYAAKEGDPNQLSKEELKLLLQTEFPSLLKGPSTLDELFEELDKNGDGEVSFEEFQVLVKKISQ

Variants of: B1
Test: abundance fitness (aPCA) (normalised: wild type 0, dead -1); higher = more abundant; growth selection in yeast, the domain comes from the species named
Particulars: Bos taurus
Measured Quantity: abundance fitness
Answers are plain numbers.

The examples below pair each entry with its known result.
Mut: E69V
Observed: -0.021
--
Mut: Y17F
Observed: -0.008
--
Mut: F54N
Observed: 0.039
--
Mut: G61E
Observed: 0.067
--
Mut: F70V
Observed: -0.165

For every record below, what is its abundance fitness?
1. Y17K
2. D58N
3. A3Q
4. K45L
5. E9A
6. L57Y
7. S78F

Found:
1: -0.519; 2: -0.053; 3: -0.01; 4: -0.018; 5: -0.132; 6: 0.03; 7: -0.25

For every record below, what is its abundance fitness?
1. L36V
2. K20F
3. G12Y
4. K5C
5. K76S
6. K29Y
7. V65C

Found:
-0.01
-0.159
-0.045
-0.252
-0.119
0.12
-0.05

For every record below, what is its abundance fitness?
1. S6G
2. E56S
3. L43V
4. P7L
5. L73P
6. S6T
7. D58M
8. T49R

Found:
1. -0.103
2. 0.002
3. 0.057
4. 0.013
5. -0.797
6. -0.03
7. -0.026
8. -0.057
